Assignment: determine reported (H2O2 produced by Compound)/(H2O2 produced by L-Trp) for the given compounds.
Experiment: Photosensitivity screening: H2O2 formation by antioxidant candidates upon light exposure (Amplex Ultra Red Assay)
Type: physicochemical
Conditions: 1 mM in 20 mM histidine acetate pH 5.5, four hours of light at 250 W/m^2
Reply: number alone, nothing else.

Inquiry: Look up (H2O2 produced by Compound)/(H2O2 produced by L-Trp) of O=C(O)Cc1c[nH]c2ccccc12 [Indole-3-Acetic Acid] and report it.
Reply text: 2.40

Inquiry: Look up (H2O2 produced by Compound)/(H2O2 produced by L-Trp) of COc1ccc2[nH]cc(CCNC(C)=O)c2c1 [N-acetyl-5-methoxytryptamine] and report it.
Reply text: 0.28

Inquiry: Look up (H2O2 produced by Compound)/(H2O2 produced by L-Trp) of NCCc1c[nH]c2ccc(O)cc12 [Serotonin (5-Hydroxytryptamine), 5-hydroxytryptamine] and report it.
Reply text: 0.03

Inquiry: Look up (H2O2 produced by Compound)/(H2O2 produced by L-Trp) of Nc1ccccc1C(=O)O [Anthranilic Acid] and report it.
Reply text: 2.50

Inquiry: Look up (H2O2 produced by Compound)/(H2O2 produced by L-Trp) of NCCc1c[nH]c2ccccc12 [Tryptamine] and report it.
Reply text: 0.53

Inquiry: Look up (H2O2 produced by Compound)/(H2O2 produced by L-Trp) of O=C(O)c1cc(O)ccc1O [5-Hydroxysalicylic Acid, 5-Hydroxy Salicylic Acid] and report it.
Reply text: 0.84

Inquiry: Look up (H2O2 produced by Compound)/(H2O2 produced by L-Trp) of COc1ccc2[nH]cc(C[C@H](N)C(=O)O)c2c1 (racemic) [5-Methoxy-DL-Trp, 5-Methoxy-Tryptophan] and report it.
Reply text: 1.05

Inquiry: Look up (H2O2 produced by Compound)/(H2O2 produced by L-Trp) of Nc1ccc2[nH]cc(C[C@H](N)C(=O)O)c2c1 (racemic) [5-Amino-DL-Trp, 5-Amino-Tryptophan] and report it.
Reply text: 0.29

Inquiry: Look up (H2O2 produced by Compound)/(H2O2 produced by L-Trp) of Oc1cccc2[nH]ccc12 [4-Hydroxyindole, 4-Hydroxy Indole] and report it.
Reply text: 0.00
